Biological target: Btk (Homo sapiens, UniProt Q06187)
Sequence (Q06187 whole entry): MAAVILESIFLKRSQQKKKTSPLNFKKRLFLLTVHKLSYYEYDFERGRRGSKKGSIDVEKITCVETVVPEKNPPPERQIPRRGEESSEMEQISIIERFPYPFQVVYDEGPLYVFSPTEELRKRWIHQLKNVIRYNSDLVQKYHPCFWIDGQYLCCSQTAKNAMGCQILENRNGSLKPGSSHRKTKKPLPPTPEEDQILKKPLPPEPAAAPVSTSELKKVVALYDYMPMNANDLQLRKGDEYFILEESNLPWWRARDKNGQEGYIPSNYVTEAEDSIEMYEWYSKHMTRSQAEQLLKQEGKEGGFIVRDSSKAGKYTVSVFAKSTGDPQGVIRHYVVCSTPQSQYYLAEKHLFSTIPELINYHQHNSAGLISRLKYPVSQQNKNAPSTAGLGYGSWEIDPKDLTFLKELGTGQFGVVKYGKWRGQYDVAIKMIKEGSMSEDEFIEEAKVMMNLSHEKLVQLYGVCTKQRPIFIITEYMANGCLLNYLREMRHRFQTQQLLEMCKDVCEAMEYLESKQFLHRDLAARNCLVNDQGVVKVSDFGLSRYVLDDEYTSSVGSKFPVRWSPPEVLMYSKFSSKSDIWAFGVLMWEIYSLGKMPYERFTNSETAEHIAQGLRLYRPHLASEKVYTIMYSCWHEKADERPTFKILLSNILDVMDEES
Assay: Btk kinase activity, TR-FRET assay
Assay type: biochemical
Conditions: read-out: Btk (IC50)
quantityMeasured: IC50

Please look up its IC50: CCNC(=O)N1CCCC(c2n[nH]c3nccc(Oc4ccc(C(=O)Nc5ncc(C)s5)cc4)c23)C1 (centres unmarked) [compound 195]
100 to 1000 nM

Continue with NC(=O)c1cc(Nc2n[nH]c3nccc(Oc4ccc(Oc5ccccc5)cc4)c23)ccn1 [compound 59]
100 to 1000 nM

Note, next up: Cc1ccnc(NC(=O)c2ccc(Oc3ccnc4[nH]nc(NC5CCN(C#N)CC5)c34)cc2)c1 [compound 278]
< 100 nM

// same read-out, input: CN(C)CCCC(=O)N1CCC[C@@H](Nc2n[nH]c3nccc(Oc4ccc(C(=O)Nc5cc(C(F)(F)F)ccn5)cc4)c23)C1 [compound 161]
< 100 nM

Next compound: Cc1ccnc(NC(=O)c2ccc(Oc3ccnc4[nH]nc(N[C@@H]5CCCN(C(=O)[C@@H]6CCCO6)C5)c34)cc2)c1 (single isomer, unassigned) [compound 94]
< 100 nM

Try CC#CC(=O)N1CCC[C@@H](Nc2n[nH]c3nccc(Oc4ccc(C(=O)Nc5cc(C)ccn5)cc4)c23)C1 [compound 280] next.
< 100 nM

Next record, please: c1ccc(Oc2ccc(Oc3ncnc4[nH]nc(N[C@@H]5CCCNC5)c34)cc2)cc1 [compound 50]
> 10000 nM

Also need CN(C/C=C/C(=O)N1CCC[C@@H](Nc2n[nH]c3nccc(Oc4ccc(Oc5ccccc5)cc4)c23)C1)C1CC1 [compound 8] , thanks.
< 100 nM

Also Cc1cc(NC(=O)c2cccc(Nc3ccnc4[nH]nc(N[C@@H]5CCCN(C(=O)N6CCOCC6)C5)c34)c2)ccc1C(C)C [compound 133] , if possible.
100 to 1000 nM

Also need C=CC(=O)N1CCC[C@@H](Nc2n[nH]c3nccc(O[C@H]4CC[C@H](C(=O)Nc5ncc(C)s5)CC4)c23)C1 [compound 144] , thanks.
100 to 1000 nM

Follow-up item: Cc1ccnc(NC(=O)c2ccc(Oc3ccnc4[nH]nc(N[C@@H]5CCCN(C(=O)C6(C)CC6)C5)c34)cc2)c1 [compound 120]
< 100 nM

Repeat with CCOP(=O)(CC(=O)N1CCC[C@@H](Nc2n[nH]c3nccc(Oc4ccc(C(=O)Nc5cc(C)ccn5)cc4)c23)C1)OCC [compound 272]
< 100 nM

Entry CC#CC(=O)N1CCC[C@@H](Nc2n[nH]c3nccc(Oc4ccc(C(=O)Nc5ncc(C)s5)cc4)c23)C1 [compound 141] please
< 100 nM

Now the compound CCC(=O)N1CCC[C@@H](Nc2n[nH]c3nccc(Oc4ccc(-c5nc6ccccc6[nH]5)cc4)c23)C1 [compound 231]
> 10000 nM

----------
Target: JAK3 (Homo sapiens, UniProt P52333)
Sequence (P52333 1-1124): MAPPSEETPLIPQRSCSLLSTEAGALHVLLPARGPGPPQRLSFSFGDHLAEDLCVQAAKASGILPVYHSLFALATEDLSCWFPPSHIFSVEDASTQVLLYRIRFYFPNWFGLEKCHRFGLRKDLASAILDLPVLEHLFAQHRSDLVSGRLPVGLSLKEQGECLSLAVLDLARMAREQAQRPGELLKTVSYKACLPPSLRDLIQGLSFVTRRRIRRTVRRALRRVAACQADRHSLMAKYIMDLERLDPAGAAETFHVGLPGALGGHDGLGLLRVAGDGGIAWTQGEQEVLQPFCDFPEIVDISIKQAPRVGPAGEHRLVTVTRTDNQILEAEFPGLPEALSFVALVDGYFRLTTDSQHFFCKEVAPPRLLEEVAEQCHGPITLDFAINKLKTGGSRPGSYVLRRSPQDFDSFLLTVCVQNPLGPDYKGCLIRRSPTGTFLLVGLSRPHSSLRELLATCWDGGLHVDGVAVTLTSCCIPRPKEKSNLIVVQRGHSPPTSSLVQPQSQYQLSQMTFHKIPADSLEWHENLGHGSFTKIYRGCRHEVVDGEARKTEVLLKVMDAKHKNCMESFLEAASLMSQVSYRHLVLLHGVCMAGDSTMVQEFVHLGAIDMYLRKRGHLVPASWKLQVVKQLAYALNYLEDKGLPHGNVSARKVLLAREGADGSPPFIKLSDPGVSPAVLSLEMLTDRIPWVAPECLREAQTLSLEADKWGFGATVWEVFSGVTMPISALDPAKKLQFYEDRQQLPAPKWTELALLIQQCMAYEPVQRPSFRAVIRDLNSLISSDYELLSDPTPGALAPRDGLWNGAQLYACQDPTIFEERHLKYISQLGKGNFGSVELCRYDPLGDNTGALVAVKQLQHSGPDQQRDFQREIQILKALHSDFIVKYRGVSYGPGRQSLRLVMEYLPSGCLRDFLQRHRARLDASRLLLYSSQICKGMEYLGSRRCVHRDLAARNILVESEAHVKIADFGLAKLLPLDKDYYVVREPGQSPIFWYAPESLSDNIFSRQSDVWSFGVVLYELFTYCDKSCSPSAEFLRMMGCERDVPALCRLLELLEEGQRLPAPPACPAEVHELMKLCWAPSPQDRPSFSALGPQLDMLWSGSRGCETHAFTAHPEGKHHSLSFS
quantityMeasured: IC50

Param readout= IC50; system= JAK3 (Homo sapiens, UniProt P52333); entry= C=CC(=O)N1CCC[C@@H](Nc2n[nH]c3nccc(Oc4ccc(Oc5ccccc5)c(C)c4)c23)C1 ; returns value.
100 to 1000 nM

Same question, C=CC(=O)N1CCC[C@@H](Nc2n[nH]c3nccc(Oc4ccc(C(=O)Nc5cc(C)on5)cc4)c23)C1 this time
100 to 1000 nM

Repeat with Cc1ccnc(NC(=O)c2ccc(Oc3ccnc4[nH]nc(NC5CCN(C#N)CC5)c34)cc2)c1
> 10000 nM

----------
Can you tell me IC50 for the items I'm about to list?
Target: Lck (Homo sapiens, UniProt P06239)
Sequence (P06239 whole entry, species assumed): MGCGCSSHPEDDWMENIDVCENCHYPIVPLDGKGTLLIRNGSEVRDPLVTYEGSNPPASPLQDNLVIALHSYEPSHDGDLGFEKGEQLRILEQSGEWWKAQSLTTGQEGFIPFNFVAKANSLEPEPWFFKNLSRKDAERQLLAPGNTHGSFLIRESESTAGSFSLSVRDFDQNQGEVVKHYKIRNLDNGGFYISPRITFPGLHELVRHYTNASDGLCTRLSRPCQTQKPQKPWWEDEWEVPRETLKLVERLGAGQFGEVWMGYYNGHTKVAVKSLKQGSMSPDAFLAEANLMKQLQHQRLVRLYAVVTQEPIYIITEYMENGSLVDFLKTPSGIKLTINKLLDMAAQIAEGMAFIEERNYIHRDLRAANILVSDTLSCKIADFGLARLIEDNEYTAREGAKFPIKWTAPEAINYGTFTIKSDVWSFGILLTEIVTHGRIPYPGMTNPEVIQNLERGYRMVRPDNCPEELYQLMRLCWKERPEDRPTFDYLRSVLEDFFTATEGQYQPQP
Experiment: Lck kinase activity, TR-FRET assay
Format: biochemical
Conditions: read-out: LCK (IC50)

For Cc1ccnc(NC(=O)c2ccc(Oc3ccnc4[nH]nc(N[C@@H]5CCCN(C(=O)C6CCNCC6)C5)c34)cc2)c1 , what is its reported IC50?
0.1 to 1 µM

Record: CN(C)C(=O)N1CCC[C@@H](Nc2n[nH]c3nccc(Oc4ccc(C(=O)Nc5ccccn5)cc4)c23)C1
> 10 µM

Now consider C=CC(=O)N1CCCC(Nc2n[nH]c3nccc(Oc4ccc(-c5ccc(C(F)(F)F)cn5)cc4)c23)C1 (stereo in doubt) and answer again.
> 10 µM

----------
For each of the molecules below, state its pIC50.
Biological target: EGFR (Homo sapiens)
Sequence (P00533 25-1210): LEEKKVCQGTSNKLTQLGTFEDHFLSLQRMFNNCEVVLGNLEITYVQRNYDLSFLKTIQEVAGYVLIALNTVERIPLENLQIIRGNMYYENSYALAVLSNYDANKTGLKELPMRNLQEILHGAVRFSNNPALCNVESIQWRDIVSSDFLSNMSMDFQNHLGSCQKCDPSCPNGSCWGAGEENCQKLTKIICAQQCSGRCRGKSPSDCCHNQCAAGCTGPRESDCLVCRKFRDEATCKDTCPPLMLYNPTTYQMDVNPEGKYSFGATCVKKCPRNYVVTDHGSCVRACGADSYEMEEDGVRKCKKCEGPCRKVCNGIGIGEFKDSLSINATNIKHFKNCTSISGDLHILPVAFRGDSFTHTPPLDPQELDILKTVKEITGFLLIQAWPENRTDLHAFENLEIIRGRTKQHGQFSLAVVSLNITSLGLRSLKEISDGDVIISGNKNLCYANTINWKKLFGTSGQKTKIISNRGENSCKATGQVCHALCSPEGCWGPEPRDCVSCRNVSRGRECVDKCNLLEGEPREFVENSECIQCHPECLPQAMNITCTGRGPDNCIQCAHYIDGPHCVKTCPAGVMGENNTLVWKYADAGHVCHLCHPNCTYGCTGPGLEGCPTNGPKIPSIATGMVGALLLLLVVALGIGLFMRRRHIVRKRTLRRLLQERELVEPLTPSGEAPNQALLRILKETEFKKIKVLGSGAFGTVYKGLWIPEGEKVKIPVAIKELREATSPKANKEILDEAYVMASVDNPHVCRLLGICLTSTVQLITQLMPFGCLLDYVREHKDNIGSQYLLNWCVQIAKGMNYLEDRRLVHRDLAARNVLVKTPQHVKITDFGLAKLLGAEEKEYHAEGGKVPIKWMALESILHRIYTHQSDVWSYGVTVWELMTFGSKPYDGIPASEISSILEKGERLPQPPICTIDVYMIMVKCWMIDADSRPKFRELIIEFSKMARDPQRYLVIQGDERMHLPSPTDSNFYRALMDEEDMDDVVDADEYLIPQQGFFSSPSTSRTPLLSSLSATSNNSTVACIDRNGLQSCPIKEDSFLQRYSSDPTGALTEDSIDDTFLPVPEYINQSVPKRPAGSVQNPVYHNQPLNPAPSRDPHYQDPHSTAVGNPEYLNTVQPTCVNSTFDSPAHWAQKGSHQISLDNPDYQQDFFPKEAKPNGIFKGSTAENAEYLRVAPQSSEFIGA
pIC50: −log10 of the molar value.

Which measured pIC50 value corresponds to CCC(=O)N1CC[C@@H](Nc2n[nH]c3nccc(Oc4ccc(C(=O)Nc5nccc(=O)[nH]5)cc4)c23)C1 ?
< 5.00

Follow-up entry: Cc1cc(NC(=O)c2cccc(Nc3ccnc4[nH]nc(O[C@@H]5CCCN(C(=O)C6CC6)C5)c34)c2)ccc1C(C)C
< 5.00

Check COCCC(=O)N1CCC[C@@H](Nc2n[nH]c3nccc(Oc4ccc(C(=O)Nc5cc(C#N)ccn5)cc4)c23)C1 too.
> 7.00

Try CCNC(=O)N1CCC[C@@H](Nc2n[nH]c3nccc(Oc4ccc(C(=O)Nc5ccccn5)cc4)c23)C1 next.
5.00 to 6.00

Now consider C=CC(=O)N1CCC[C@@H](Nc2n[nH]c3nccc(O[C@H]4CC[C@H](C(=O)Nc5ncc(C)s5)CC4)c23)C1 .
5.00 to 6.00

Continue with Cc1ccnc(NC(=O)c2ccc(Oc3ccnc4[nH]nc(N[C@@H]5CCCN(C(=O)C6(C)CCC6)C5)c34)cc2)c1
< 5.00

How about this molecule: CC(=O)N1CCC[C@@H](Oc2n[nH]c3nccc(Nc4cccc(C(=O)Nc5ccc(C(C)C)c(C)c5)c4)c23)C1
5.00 to 6.00

Further, for Cc1ccnc(NC(=O)c2ccc(Oc3ccnc4[nH]nc(NC5CCN(C(=O)C6(C#N)CC6)CC5)c34)cc2)c1 ?
5.00 to 6.00

Now consider N#C/C(=C\c1ccccc1)C(=O)N1CC[C@@H](Nc2n[nH]c3nccc(Oc4ccc(Oc5ccccc5)cc4)c23)C1 .
6.00 to 7.00

Again, but for N#C/C(=C\C1CC1)C(=O)N1CC[C@@H](Nc2n[nH]c3nccc(Oc4ccc(Oc5ccccc5)cc4)c23)C1
> 7.00

What would you report for NC(=O)c1cc(Nc2n[nH]c3nccc(Oc4ccc(Oc5ccccc5)cc4)c23)ccn1 ?
6.00 to 7.00

Also check Cc1ccnc(NC(=O)c2ccc(Oc3ccnc4[nH]nc(N[C@@H]5CCCN(C(=O)c6ccccn6)C5)c34)cc2)c1
< 5.00

----------
Target: Lck (Homo sapiens, UniProt P06239)
Experiment: Lck kinase activity, TR-FRET assay
Assay type: biochemical
Conditions: read-out: LCK (IC50)
pIC50: −log10 of the molar value.
quantityMeasured: pIC50

What measured pIC50 is associated with CC#CC(=O)N1CC[C@@H](Nc2n[nH]c3nccc(Oc4ccc(C(=O)Nc5ncc(C)s5)cc4)c23)C1 on Lck (Homo sapiens, UniProt P06239)?
5.00 to 6.00

Same read-out for C=CC(=O)N1CCC[C@@H](Nc2n[nH]c3nccc(Oc4cccc(-c5ncc(C)s5)c4)c23)C1 ?
< 5.00

Same read-out for CN(C/C=C/C(=O)N1CC[C@@H](Nc2n[nH]c3nccc(Nc4ccc(Oc5ccccc5)cc4)c23)C1)C1CC1 ?
> 7.00

What do you get for c1ccc(Oc2ccc(Oc3ccnc4[nH]nc(NC5CCOCC5)c34)cc2)cc1 ?
> 7.00

The measurements presented in this section are drawn from patent US9580416B2.
